These entries and their values trace back to PubChem BioAssay (NCI).

A collection of molecules and their measured TGI
# System: RPMI-8226 leukemia
# assay-remarks: NCI tumour cell line growth inhibition, 48 h
Write the answer as a number in µM, unit excluded.

{"columns": ["compound-structure-string", "units-of-measure", "reported-value"],
 "data": [
  ["CC1=C(C(=O)Nc2ccccc2)C2(CCCCC2)C(C#N)=C(SCC(=O)Nc2ccc(Br)cc2)N1", "µM", 7.11]
]}

Recorded result, "Cc1ncc(C(=O)Nc2ccc(CN3CCN(C)CC3)c(C(F)(F)F)c2)cc1C#Cc1cnc(N)cc1C#N" , TGI: 3.5

* * *

# System: SF-539 CNS
# assay-remarks: NCI tumour cell line growth inhibition, 48 h
A collection of compounds and their measured TGI
Write the answer as a number in µM, unit excluded.

Recorded result, "O=C1CCc2c(sc3[nH]c(=S)n(Cc4ccc(Cl)cc4)c(=O)c23)C1" , TGI: 1.63

Recorded result, "N#Cc1c(N)nc(Sc2ccccc2N)c(C#N)c1-c1ccc(Cl)cc1" , TGI: 26.7
